Experiment: WHO-TDR: Cytotoxicity
Type: toxicity, cell-based
Conditions: human, MRC5 cells
IC50 values for the molecules below.

Provide only the value of recorded IC50 for CNC(=O)c1ccsc1NC(=O)CSc1ccc(Cl)cc1 > 10.2 µg/mL

Provide only the value of recorded IC50 for O=C(Cc1csc(NC(=O)C2CCC(=O)N2)n1)NCc1ccccn1 (stereo unspecified) > 10.8 µg/mL

Provide only the value of recorded IC50 for O=C(NCCc1c[nH]c2ccccc12)c1n[nH]c2ccccc12 > 9.13 µg/mL

Provide only the value of recorded IC50 for CC1CCN(C(C)CNC(=O)Nc2ccc(C(F)(F)F)cc2)CC1 (stereo unspecified) 8.41 µg/mL

Provide only the value of recorded IC50 for Cc1ccc(S(=O)(=O)N2CCC(C(=O)Nc3c(C(N)=O)oc4ccccc34)CC2)cc1 > 13.2 µg/mL

Provide only the value of recorded IC50 for O=S(=O)(Nc1nc2c(Cl)cccc2s1)c1ccc(Cl)s1 > 11 µg/mL

We next turn to a different molecule, shown below.
Provide only the value of recorded IC50 for CCCCOc1ccc(C(=O)N2CCN(c3cc(OC)nc(OC)n3)CC2)cc1 > 12 µg/mL

----------
System: Schistosoma mansoni
Assay: WHO-TDR: Schistosomiasis
Assay type: functional
Parameters: concentration or dose not given beside the values
% Inhibition values for the compounds below.
State just the number; it will be interpreted in %.

Please review the entries below; each comes with its answer.
Recall the reported % Inhibition of CC1Cc2ccccc2N1C(=O)Cc1csc(SCC(=O)Nc2ccc(F)cc2)n1 (configuration not stated) when tested on Schistosoma mansoni. 0

Recall the reported % Inhibition of O=C(NCCn1nc(-c2ccco2)ccc1=O)C1c2ccccc2Oc2ccccc21 when tested on Schistosoma mansoni. 0

Recall the reported % Inhibition of CC(C)N1CCc2c(sc(NC(=O)COc3ccc(Cl)cc3Cl)c2C(N)=O)C1 when tested on Schistosoma mansoni. 0

Recall the reported % Inhibition of O=C(CSc1ncc(-c2ccccc2)[nH]1)Nc1cc(C(F)(F)F)ccc1Cl when tested on Schistosoma mansoni. 0

Recall the reported % Inhibition of O=C(Nc1nc(-c2ccccn2)cs1)C1CCN(S(=O)(=O)c2ccc(Cl)cc2)CC1 when tested on Schistosoma mansoni. 0

Further cases:
Recall the reported % Inhibition of O=C(CS(=O)(=O)c1ccc(F)cc1)Nc1onc2c1CCC2 when tested on Schistosoma mansoni. 0

Recall the reported % Inhibition of CNC(=O)c1ccsc1NC(=O)CSc1ccc(Cl)cc1 when tested on Schistosoma mansoni. 0

Recall the reported % Inhibition of CC1Cc2ccccc2N1C(=O)Cc1csc(NC(=O)c2ccc[nH]c2=O)n1 (configuration not stated) when tested on Schistosoma mansoni. 100

----------
IC50 values for the compounds below.
System: Plasmodium falciparum K1
Assay: WHO-TDR: Malaria
Assay type: functional, organism-based, Homo sapiens
Details: Erythrocyte

Please review the entries below; each comes with its answer.
Provide only the value of recorded IC50 for CCC(=O)Nc1ccc(S(=O)(=O)NCCc2ccc(N3CCCC3)cc2)c(C)c1 > 12.5 µg/mL

Provide only the value of recorded IC50 for CCOC(=O)c1c(NC(=O)C(C)Sc2nnc(NC(C)=O)s2)sc2c1CCCC2 (stereo not given) > 13.6 µg/mL

Provide only the value of recorded IC50 for O=C(CSc1nncc(=O)[nH]1)Nc1ccc(Br)cc1 0.966 µg/mL

Provide only the value of recorded IC50 for Cc1cc(NC(=O)C2(c3ccc(Cl)cc3)CCCC2)n(-c2nc3c(c(=O)[nH]2)CCC3)n1 0.644 µg/mL

Provide only the value of recorded IC50 for CN(C)CCCN(C(=O)/C=C/c1ccccc1)c1nc2ccccc2s1 1.74 µg/mL

Further cases:
Provide only the value of recorded IC50 for COc1ccc(S(=O)(=O)Nc2cc(C)nn2C2CCS(=O)(=O)C2)cc1C (stereo not given) > 12 µg/mL

Provide only the value of recorded IC50 for Cc1cc(=O)[nH]c(-n2nc(C)c(CCC(=O)Nc3cc(C)on3)c2C)n1 > 10.7 µg/mL

Provide only the value of recorded IC50 for Cc1cc(=O)[nH]c(-n2nc(C)cc2NC(=O)c2ccccc2C(F)(F)F)n1 > 11.3 µg/mL

Provide only the value of recorded IC50 for O=C(c1ccccc1F)N1CCN(c2ccc(-c3ccccn3)nn2)CC1 0.396 µg/mL

Provide only the value of recorded IC50 for CCS(=O)(=O)c1cccc(C(=O)Nc2nc3c(s2)CSc2ccccc2-3)c1 > 12.5 µg/mL

All values here come from ChEMBL document CHEMBL2093137.
